So I've got a bunch of molecules here, and I need their CC50 at 7 days values.
- test-name: MTT cell cytotoxicity assay
- Type: cell-based
- condition: human, uninfected MRC5 cells, MTT, uninfected MRC5, 7 days

Briefly, CC50 at 7 days measured for Nc1nc(O)c2ncn(COC(CO)CO)c2n1 [GCV, Ganciclovir, reference compound] : > 100 µM

Briefly, CC50 at 7 days measured for OC[C@@H](O)Cn1c(Cc2cccc3ccccc23)nc2ccccc21 : > 100 µM

Briefly, CC50 at 7 days measured for O=C(O)C[C@H]1S/C(=N/N=C/c2c(OCc3ccccc3Cl)ccc3ccccc23)NC1=O : > 100 µM

Briefly, CC50 at 7 days measured for Cc1ccc(-c2nnc(Nc3ccc(CC(N)=O)cc3)c3ccccc23)cc1S(=O)(=O)NC1CCCCC1 : ~10 µM
